B1: ZNF649 (parent)
chain: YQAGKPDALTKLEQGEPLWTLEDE

# Variants of: B1
# assay_remarks: protein stability index of a GFP-peptide fusion (GPS, HEK-293T) (PSI 1-6); higher = more stable;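 also: lentivirally expressed fusions sorted by FACS into six bins by GFP to DsRed ratio, PSI derived from sequencing read proportions per bin multiplied by bin number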
# measurement_conditions: c terminus: a fixed tail appended
# label = Fulfilled if protein stability index >= 4 else Not fulfilled

[[record]]
mutant_name = "A3E"
group_label = "Fulfilled"

[[record]]
mutant_name = "L12G"
group_label = "Fulfilled"

[[record]]
mutant_name = "L21C"
group_label = "Not fulfilled"

[[record]]
mutant_name = "G15L"
group_label = "Fulfilled"

[[record]]
mutant_name = "L21E"
group_label = "Fulfilled"

[[record]]
mutant_name = "E13F"
group_label = "Not fulfilled"

[[record]]
mutant_name = "A8C"
group_label = "Not fulfilled"

[[record]]
mutant_name = "Y1G"
group_label = "Fulfilled"

[[record]]
mutant_name = "W19C"
group_label = "Fulfilled"

[[record]]
mutant_name = "Y1C"
group_label = "Fulfilled"

[[record]]
mutant_name = "E13R"
group_label = "Not fulfilled"

[[record]]
mutant_name = "K5V"
group_label = "Not fulfilled"

[[record]]
mutant_name = "A8M"
group_label = "Not fulfilled"

[[record]]
mutant_name = "L18Q"
group_label = "Fulfilled"

[[record]]
mutant_name = "G4F"
group_label = "Fulfilled"

[[record]]
mutant_name = "P6L"
group_label = "Not fulfilled"

[[record]]
mutant_name = "Q14T"
group_label = "Fulfilled"

[[record]]
mutant_name = "L21W"
group_label = "Not fulfilled"

[[record]]
mutant_name = "E24N"
group_label = "Fulfilled"

[[record]]
mutant_name = "W19H"
group_label = "Fulfilled"

[[record]]
mutant_name = "G4S"
group_label = "Fulfilled"

[[record]]
mutant_name = "L9A"
group_label = "Fulfilled"

[[record]]
mutant_name = "L21F"
group_label = "Fulfilled"

[[record]]
mutant_name = "T20G"
group_label = "Fulfilled"

[[record]]
mutant_name = "T20N"
group_label = "Fulfilled"

[[record]]
mutant_name = "A8S"
group_label = "Fulfilled"

[[record]]
mutant_name = "A3K"
group_label = "Fulfilled"

[[record]]
mutant_name = "L12W"
group_label = "Not fulfilled"

[[record]]
mutant_name = "D23T"
group_label = "Not fulfilled"

[[record]]
mutant_name = "Q14P"
group_label = "Fulfilled"

[[record]]
mutant_name = "E16V"
group_label = "Not fulfilled"

[[record]]
mutant_name = "Q2K"
group_label = "Fulfilled"

[[record]]
mutant_name = "E13Y"
group_label = "Not fulfilled"

[[record]]
mutant_name = "T10D"
group_label = "Fulfilled"

[[record]]
mutant_name = "P6Q"
group_label = "Fulfilled"

[[record]]
mutant_name = "Q2N"
group_label = "Fulfilled"

[[record]]
mutant_name = "E16M"
group_label = "Not fulfilled"

[[record]]
mutant_name = "W19K"
group_label = "Fulfilled"

[[record]]
mutant_name = "G15W"
group_label = "Not fulfilled"

[[record]]
mutant_name = "T10Y"
group_label = "Fulfilled"

[[record]]
mutant_name = "K5Y"
group_label = "Not fulfilled"

[[record]]
mutant_name = "A3W"
group_label = "Not fulfilled"

[[record]]
mutant_name = "L12T"
group_label = "Fulfilled"

[[record]]
mutant_name = "T10A"
group_label = "Fulfilled"

[[record]]
mutant_name = "E22P"
group_label = "Fulfilled"

[[record]]
mutant_name = "Y1R"
group_label = "Fulfilled"

[[record]]
mutant_name = "Q14K"
group_label = "Fulfilled"

[[record]]
mutant_name = "A8D"
group_label = "Fulfilled"

[[record]]
mutant_name = "T20H"
group_label = "Fulfilled"

[[record]]
mutant_name = "Y1T"
group_label = "Fulfilled"

[[record]]
mutant_name = "D7Q"
group_label = "Not fulfilled"

[[record]]
mutant_name = "Q14H"
group_label = "Fulfilled"

[[record]]
mutant_name = "A8F"
group_label = "Not fulfilled"

[[record]]
mutant_name = "L9Y"
group_label = "Fulfilled"

[[record]]
mutant_name = "D23R"
group_label = "Fulfilled"

[[record]]
mutant_name = "Q2V"
group_label = "Not fulfilled"

[[record]]
mutant_name = "T20A"
group_label = "Not fulfilled"

[[record]]
mutant_name = "G4K"
group_label = "Fulfilled"

[[record]]
mutant_name = "E24F"
group_label = "Not fulfilled"

[[record]]
mutant_name = "A3H"
group_label = "Fulfilled"

[[record]]
mutant_name = "L18I"
group_label = "Not fulfilled"

[[record]]
mutant_name = "D7T"
group_label = "Not fulfilled"

[[record]]
mutant_name = "E13P"
group_label = "Fulfilled"

[[record]]
mutant_name = "K11C"
group_label = "Fulfilled"

[[record]]
mutant_name = "Q2I"
group_label = "Not fulfilled"

[[record]]
mutant_name = "E22G"
group_label = "Not fulfilled"

[[record]]
mutant_name = "E13L"
group_label = "Not fulfilled"

[[record]]
mutant_name = "Q2T"
group_label = "Fulfilled"

[[record]]
mutant_name = "L18K"
group_label = "Fulfilled"

[[record]]
mutant_name = "E24W"
group_label = "Not fulfilled"

[[record]]
mutant_name = "D23H"
group_label = "Fulfilled"

